Values compiled from PubChem BioAssay.

- assayName: reversal of MRP1-mediated doxorubicin resistance, pilot screen, H69AR cells, doxorubicin co-treatment (AID 601)
- settings: H69AR cells + 2 uM doxorubicin, CellTiter-Glo, 72 h; measured here: viability with 2 uM doxorubicin; at 10 µM; stronger effect = lower value
Record form. Attribute: viability. Fill in for each entry.
One number for each entry, in %.

Items follow; give viability for each.
1. CCN(C(=O)c1cccs1)c1nnc(-c2ccncc2)s1
2. Cc1c(NC(=O)c2coc(=O)c(Br)c2)c(=O)n(-c2ccccc2)n1C
3. O=C(Nc1ccc(-c2nc3ncccc3o2)cc1)c1ccc(Br)o1
4. COCCCN1C(=O)C(=O)/C(=C(/O)c2ccc(OC)cc2)C1c1ccc(O)c(OC)c1 (stereo not given)
5. COCCn1c(-c2ccco2)nc2nc3ccccc3nc21
6. O=[N+]([O-])c1cccc2cn[nH]c12
7. Cc1cccc(N(C)C(=O)c2cc3cc4ccc(C)cc4nc3o2)c1
8. C#CCN1C(=O)C(O)(CC(=O)c2cc(OC)ccc2OC)c2ccccc21 (stereo not given)

Result:
1. 85.5
2. 1.64
3. 53.2
4. 96.9
5. 79.6
6. 90
7. 48.8
8. 55.5

###

- assayName: reducers of endogenous Her2 protein level, primary screen, SKBR3 breast tumor cells, AlphaScreen, ATP viability (AID 461);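 further: percent of carrier control wells set as 100% viability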
- settings: 18-24 h, measured here: SKBR3 viability, ATP luminescence, at 10 µM
Record form. Attribute: viability. Fill in for each entry.
Give bare numbers, in %.

molecule: Cc1cc2ncn(S(=O)(=O)c3ccc(S(=O)(=O)N4CCOCC4)cc3)c2cc1C
numericReadout: 91.5

molecule: O=C(N1CCN(c2ccccc2F)CC1)C12CC3CC(CC(C3)C1)C2
numericReadout: 88.5

molecule: COc1ccc(N(CC(=O)N2CCCCC2)S(=O)(=O)c2ccccc2)c(OC)c1
numericReadout: 91

molecule: CN(Cc1ccccc1)Cc1nc2c([nH]1)c(=O)[nH]c(=O)n2C
numericReadout: 92

molecule: O=C(Nc1nccs1)c1ccc(Cl)c(S(=O)(=O)N2CCCCC2)c1
numericReadout: 89

In the following, a different molecule is considered.
Task: For CCC(C)OC(=O)c1[nH]c2c(c1C)C(=O)CC(c1ccc(N(C)C)cc1)C2 (stereo unspecified) , what is its reported viability?
Result: 88.5

###

- assayName: reversal of MRP1-mediated doxorubicin resistance, pilot screen, H69AR cells, doxorubicin co-treatment (AID 601)
- settings: H69AR cells, CellTiter-Glo, 72 h; compound alone cytotoxicity; at 10 µM
The threshold is 90%. Values of viability beneath it are tagged Condition met; values meeting or exceeding it are tagged Condition not met.

Example cases with answers are listed next.
compound: CCOc1ccc(N2CC(C(=O)Nc3ccc(F)cc3F)CC2=O)cc1 (stereo not drawn)
groupLabel: Condition not met

compound: CCSc1nnc(NC(=O)c2cc(C)oc2C)s1
groupLabel: Condition not met

compound: CC(=O)c1cccc(NS(=O)(=O)c2ccc3c(c2)oc(=O)n3C)c1
groupLabel: Condition not met

compound: NS(=O)(=O)c1ccc(CCNC(=O)CCC2COc3ccccc3O2)cc1 (stereo not drawn)
groupLabel: Condition not met

compound: CCOC(=O)N1CCN(C(=O)CN(Cc2ccccc2)S(=O)(=O)c2ccc(OC)c(C)c2)CC1
groupLabel: Condition not met

compound: COc1ccc(C2=CC(=O)OC3(CCCCC3)O2)cc1
groupLabel: Condition met

compound: O=C(NC1CCCCC1)C(c1ccccc1)N(Cc1ccco1)C(=O)Cn1cnc2ccccc21 (stereo not drawn)
groupLabel: Condition met

compound: Cc1ccc(C)c(-n2nnnc2SCC(=O)NCCC2=CCCCC2)c1
groupLabel: Condition not met

Task: Hello, I'm reviewing records and need to know if viability of Cn1c2c(c(=O)[nH]c1=O)C(NC(=O)c1ccco1)(C(F)(F)F)C(=O)N2 (stereo not drawn) is below 90%. Could you check?
Result: Condition not met

Task: Hello, I'm reviewing records and need to know if viability of `CCOc1ncccc1C(=O)Nc1ccc(Cl)cc1` is below 90%. Could you check?
Result: Condition met

Task: Hello, I'm reviewing records and need to know if viability of CCC(CCC(=O)Nc1cccc(C(=O)O)c1)C(=O)O (stereo not drawn) is below 90%. Could you check?
Result: Condition not met

###

Record form. Attribute: viability. Fill in for each entry.
- assayName: SK-BR-3 cell growth inhibitors, pilot screen, 24 h, human (AID 572);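 further: compound exposure lasted between 18 and 24 h rather than exactly 24 h; 100% = carrier-treated control wells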
- settings: SK-BR-3 viability, CellTiter-Glo luminescence, at 10 µM, stronger effect = lower value
Numbers only, in %.

compound: O=C1CC(c2ccccc2)Cc2nc(N3CCc4ccccc43)ncc21 (stereo not drawn)
measurementUnit: %
viability: 79

Items follow; give viability for each.
1. Cc1cc(=O)n2nc(N3CCCC(C(=O)N4CCN(C)CC4)C3)sc2n1 (stereo not drawn)
2. CO/C([O-])=N/c1c[n+](-c2ccc(C)cc2)no1

Result:
1: 110; 2: 100

###

- assayName: SK-BR-3 cell growth inhibitors, pilot screen, 24 h, human (AID 572);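 further: compound exposure lasted between 18 and 24 h rather than exactly 24 h; 100% = carrier-treated control wells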
- settings: SK-BR-3 viability, CellTiter-Glo luminescence, at 10 µM, stronger effect = lower value
endpoint: viability (%)
Answers are plain numbers, in %.

Answered cases to consult:
molecule: Cn1nnc2c(sc3nc(N4CCOCC4)c4c(c32)CCCC4)c1=O
measurementUnit: %
viability: 100

molecule: c1ccc(-c2ccc(-c3ccccn3)nn2)nc1
measurementUnit: %
viability: 112

molecule: Cc1cc(C)c2oc(=O)cc(CN3CCOCC3)c2c1
measurementUnit: %
viability: 102

molecule: CC(C)Oc1ccc(C2C(C(=O)c3ccco3)=C(O)C(=O)N2CCCN(C)C)cc1 (stereo not given)
measurementUnit: %
viability: 89

molecule: Cc1cc(C)c2ccc(N)nc2c1O
measurementUnit: %
viability: 87.5

Items follow; give viability for each.
1. Cc1[nH]nc2c1C1(C(=O)N(Cc3ccc(Cl)cc3)c3ccccc31)C(C#N)=C(N)O2 (stereo not given)
2. COC(=O)[C@H](C)NC(=O)Nc1cccc(C(F)(F)F)c1
3. O=C(NCc1ccc2c(c1)OCO2)C1CCC(CNS(=O)(=O)c2ccccc2)CC1 (stereo not given)
4. CCOc1nc(OCC)nc(N2CCC(C)CC2)n1
5. COc1ccc(/C=N/n2cnnc2SCc2ccc(OC)cc2)cc1

Result:
1: 94; 2: 145; 3: 92; 4: 91; 5: 83.5

###

- assayName: reversal of MRP1-mediated doxorubicin resistance, pilot screen, H69AR cells, doxorubicin co-treatment (AID 601)
- settings: H69AR cells, CellTiter-Glo, 72 h; compound alone cytotoxicity; at 10 µM
Record form. Attribute: viability. Fill in for each entry.
Give bare numbers, in %.

Answered cases to consult:
molecule: N#CC1=C(N)Oc2c(ccc3cccnc23)C1c1cccnc1 (stereo not drawn)
numericReadout: 15.1
--
molecule: COc1ccc(CN(CC(=O)NCC2CCCO2)C(=O)CCC(=O)Nc2cc(C)on2)cc1 (stereo not drawn)
numericReadout: 89.4
--
molecule: CC(=O)N=c1sc(S(N)(=O)=O)nn1C
numericReadout: 93.9
--
molecule: Cc1cc(/N=C/N(C)C)on1
numericReadout: 93.7
--
molecule: CC(=O)Nc1ccc(-c2cc3ccccc3o2)cc1
numericReadout: 95.9
--
molecule: Cc1c(O)c(CN2CCCC(C)C2)cc2c3c(c(=O)oc12)CCC3 (stereo not drawn)
numericReadout: 83.1

Items follow; give viability for each.
1. Cn1c(=O)c2c(nc(N3CCN(c4ccccc4)CC3)n2CCCc2ccccc2)n(C)c1=O
2. CC(C)[C@H](NC(=O)NCc1ccc(Cl)cc1)C(=O)O

Result:
84.1
103

###

- assayName: reversal of MRP1-mediated doxorubicin resistance, pilot screen, H69AR cells, doxorubicin co-treatment (AID 601)
- settings: H69AR cells, CellTiter-Glo, 72 h; compound alone cytotoxicity; at 10 µM
Record form. Attribute: viability. Fill in for each entry.
Give bare numbers, in %.

molecule: c1n[nH]c(SCCCCSc2ncn[nH]2)n1
measurementUnit: %
numericReadout: 108
//
molecule: O=C(Nc1ccc(NC(=O)c2ccco2)nc1)c1cccnc1
measurementUnit: %
numericReadout: 88.7
//
molecule: COC(=O)c1cccc(Nc2cc(C)nc(-c3ccccc3O)n2)c1
measurementUnit: %
numericReadout: 64.4
//
molecule: O=C(Cn1ccc2ccccc2c1=O)NCCC(=O)N1CCN(C2CCCCC2)CC1
measurementUnit: %
numericReadout: 104

In the following, a different molecule is considered.
Task: For COc1ccc(CCN2C(=O)C3C4C=CC(C4)C3C2=O)cc1OC (stereo not given) , what is its reported viability?
Result: 99.8

###

Record form. Attribute: viability. Fill in for each entry.
- assayName: growth inhibitors of H69AR lung tumor, primary screen, human, duplicate replicates (AID 580);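 further: 100% = mean luminescence of untreated wells and 0% = no signal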
- settings: H69AR lung tumor cells viability, ATP luminescence, 72 h; at 10 µM; stronger effect = lower value
One number for each entry, in %.

Answered cases to consult:
molecule: C1=C(CCNc2ncnc3c2cnn3-c2ccccc2)CCCC1
endpoint: viability
measurementUnit: %
numericReadout: 88.7
--
molecule: Cc1[nH]nc2c1C(c1ccc(F)cc1)C1=C(CC(C)(C)CC1=O)N2 (stereo not given)
endpoint: viability
measurementUnit: %
numericReadout: 87.4
--
molecule: CC1CCN(S(=O)(=O)c2ccc(Br)s2)CC1
endpoint: viability
measurementUnit: %
numericReadout: 87.5
--
molecule: COc1cc(NS(=O)(=O)c2ccc(N)cc2)ncn1
endpoint: viability
measurementUnit: %
numericReadout: 92
--
molecule: CN1C(=O)c2c(sc3c2CCCC3)NC1c1ccccc1O (stereo not given)
endpoint: viability
measurementUnit: %
numericReadout: 93.2

Items follow; give viability for each.
1. O=C1CCC(c2ccccc2)N1C(=O)c1cccnc1 (stereo not given)
2. CN(C)CCCN1c2ccccc2CCc2ccc(Cl)cc21
3. CC1CN(C2CCCCC2)c2nc3c(c(=O)[nH]c(=O)n3C)n2C1 (stereo not given)
4. CCn1c(CSc2ncccn2)nnc1SCC(=O)N1c2ccccc2CC1C (stereo not given)

Result:
1: 98.8; 2: 65.2; 3: 82.2; 4: 96.3

Items follow; give viability for each.
1. O=C(Nc1ccccc1C(=O)NCCCn1ccnc1)c1ccccc1
2. Brc1ccc(C2=Nn3c(nnc3-c3ccncc3)SC2)cc1
3. CC1(C)CC(=O)c2c(O)cc(O)cc2O1
4. CN(C(=O)c1ccncc1)C1CC(C)(C)N(O)C(C)(C)C1
5. CCCC(=O)Nc1ccccc1NC(=O)CN(C)S(=O)(=O)c1ccc(C)cc1

Result:
96.8
77.1
99.7
92.3
98.9

Items follow; give viability for each.
1. CCCn1c(=NC(C)=O)c(C#N)cc2c(=O)n3cccc(C)c3nc21
2. COc1ccc(CCNC(=O)CCN2C(=O)C3CC=CCC3C2=O)cc1OC (stereo not given)
3. O=C(Cc1nc2ccccc2s1)c1ccc(O)cc1O
4. CC(C)CN(CC(C)C)c1nc(N)c(C#N)c(CC#N)c1C#N
5. CCCS(=O)(=O)N1CCCC(C(=O)NC(C)c2ccc3c(c2)OCCO3)C1 (stereo not given)

Result:
1. 87.3
2. 105
3. 90.8
4. 86.7
5. 93.9

Task: For `COc1ccc(CCN2CC(O)=C(c3nc4ccccc4c(=O)[nH]3)C2=N)cc1OC` , what is its reported viability?
Result: 80.8
